- Tested on: Zika virus (Dakar)
- testSummary: NanoLuc reporter virus infection assay, Huh-7
- Assay type: cell-based
- conditionLabel: Zika virus (Dakar) [Huh-7]; n = 1; read-out: Antiviral activity EC50
propertyLabel: EC50

Param item = CCC(CC)COC(=O)[C@H](C)N[P@](=O)(OC[C@H]1O[C@@](C#N)(c2ccc3c(N)ncnn23)[C@H](O)[C@@H]1O)Oc1ccccc1 [RDV, Remdesivir] ; retrieve measured EC50.
370 nM

* * *

- System: rhinoviruses of serotypes A and B
- testSummary: CPE assay, H1 HeLa cells (summary over rhinoviruses)
- Type: cell-based
- conditionLabel: Enterovirus, read-out: EC50 range against rhinoviruses of serotypes A and B
propertyLabel: EC50

Query (compound): `CCC(CC)COC(=O)[C@H](C)N[P@](=O)(OC[C@H]1O[C@@](C#N)(c2ccc3c(N)ncnn23)[C@H](O)[C@@H]1O)Oc1ccccc1` ; field requested: EC50
385 to 750 nM

Data origin: paper PMC9950143
